Reference source for all entries: a melting point compilation (Tetko et al.)

The entries below are paired with their reported melting point.

Look over these answered cases.
INSERT INTO measurements (smiles_entry, attribute_measured, reported_value) VALUES
  ('O=C(O)c1ccc(OC(F)(F)C(F)F)cc1', 'melting point', '176 to 177 °C'),
  ('CCCCC(=O)c1ccc2c(c1)OCCOCCOc1cc(C(=O)CCCC)ccc1OCCOCCO2', 'melting point', '117 to 133 °C');

Query (compound): "Fc1cccc(F)c1CBr" ; field requested: melting point
51 to 55 °C

---

Listed next: entries and their corresponding melting point.

A selection of reference data follows.
INSERT INTO results (compound, reported_value) VALUES
  ('COC(=O)[C@@H](NC(=O)OCc1ccccc1)[C@@H](C)O', '92 to 94 °C'),
  ('CNCc1ccc(-n2ccnc2)cc1', '67 to 69 °C'),
  ('O=Cc1ccc2sccc2c1', '53 to 54 °C'),
  ('O=C(c1ccccc1)C(Br)c1ccccc1 (configuration not stated)', '53 to 58 °C'),
  ('O=C(C(=O)c1ccc([N+](=O)[O-])cc1)c1ccccc1', '141 to 143 °C'),
  ('CC(C)(C)OC(=O)Nc1ccco1', '98 to 100 °C');

Requested field: melting point. Item: "Brc1ccc(-c2nc(-c3ccccc3)c(-c3ccccc3)[nH]2)cc1"
252 to 260 °C

---

attribute measured: melting point

INSERT INTO measurements (compound, attribute_measured, reported_value) VALUES
  ('CCOC1OC2C(CO)OC(n3cnc4c(N)ncnc43)C2O1 (centres undefined)', 'melting point', '228 to 231 °C');

Which melting point value belongs to "NC(=O)c1cccc(Cl)c1Cl" ?
170 to 172 °C

Repeat with "Cc1noc(C)c1N"
52 to 54 °C

Also "C=CCN=C(NCC=C)c1cc(C(C)(C)C)c(O)c(C(C)(C)C)c1" , if possible.
201 to 202 °C

---

Measured melting point, listed per entry.

INSERT INTO results (molecule, reported_value) VALUES
  ('Cc1noc(-c2ccc(C=O)cc2)n1', '133 to 135 °C'),
  ('CC1(C)OC(=O)C(=C2CCCN2)C(=O)O1', '171 to 175 °C'),
  ('C#CC1(O)CCC2(C)C(CCC3C2CCC2(C)C3CCC23OCCO3)C1 (stereo unspecified)', '203 to 209 °C'),
  ('O=C(Oc1cccc2c1CCC2=O)c1ccccc1', '78 to 80 °C'),
  ('CN(N)C(=O)c1ccccc1N', '69 to 71 °C');

Any idea what its melting point is? The molecule is "Oc1cc(C(F)(F)F)nc2ccc(C(F)(F)F)cc12"
274 to 277 °C

---

attribute measured: melting point

Which melting point reading was recorded for the compound "O=C(c1ccc(F)cc1)c1ccc([N+](=O)[O-])cc1" ?
87 to 89 °C

---

Collected melting point values appear next to each entry.
Give the quantity in °C, number only.

INSERT INTO assay_data (molecule, reported_value) VALUES
  ('COc1c(OC)c(OC(C)=O)c2ccccc2c1OC(C)=O', 138),
  ('O=C(OC(C(=O)O)C(OC(=O)c1ccccc1)C(=O)O)c1ccccc1 (configuration not stated)', 155),
  ('CC(=O)OCC(COC(C)=O)OC(C)=O', 78);

Turning to the following molecule.
Give its melting point value. Item: "Clc1nc2ccccc2s1"
31.5

---

Listing of entries alongside the reported melting point.

INSERT INTO measurements (compound, attribute_measured, reported_value) VALUES
  ('CCNC(=S)Nc1ccccc1', 'melting point', '102 to 104 °C'),
  ('CC(C)(C)S(=O)(=O)c1cnc(N2CCOCC2)nc1N', 'melting point', '196 to 198 °C');

Shift focus to the following entry.
Item NC1c2ccccc2CC1O (stereo not drawn) has what recorded melting point?
117 to 121 °C

---

attribute measured: melting point

INSERT INTO results (molecule, reported_value) VALUES
  ('O=C(NCc1ccc(S(=O)(=O)Cl)s1)c1ccc(Cl)cc1', '138 to 140 °C'),
  ('CC(CC(N)C(=O)O)C(F)(F)F (racemic)', '273 to 275 °C');

melting point lookup needed for OCC(O)CN1CCCC1 (stereo not drawn) , thanks.
43 to 48 °C

---

Quick reference for melting point among some compounds

Record excerpt, results attached:
INSERT INTO measurements (compound, attribute_measured, reported_value) VALUES
  ('N#Cc1ccc(F)cc1C#N', 'melting point', '101 °C'),
  ('COc1cc(CCC(=O)O)ccc1O', 'melting point', '90 °C'),
  ('O=C1OC(=O)c2c(Cl)cccc21', 'melting point', '123 to 126 °C'),
  ('CSc1nc2cc(N=Cc3ccccc3Cl)ccc2[nH]1', 'melting point', '229 to 231 °C'),
  ('Cc1cccc(C(=O)Cl)c1', 'melting point', '-23 °C'),
  ('Nc1ccc(N)c2ccccc12', 'melting point', '120 °C'),
  ('O=C(O)CCCCCCCC(O)C(O)CCCCCCO (stereo not drawn)', 'melting point', '100 °C'),
  ('O=[N+]([O-])c1c(N2CCCCC2)cc(Cl)c2nonc12', 'melting point', '159 to 161 °C');

What value of melting point has been reported for the following compound? "COc1ccc(-c2n[nH]cc2C=O)cc1"
160 to 161 °C

Same question for Cc1ccccc1CC(NC(=O)OC(C)(C)C)C(=O)O (racemic) please.
125 to 129 °C

One more compound: "O=C1c2ccc([N+](=O)[O-])cc2C(=O)N1CCCBr"
104 to 107 °C

Next: CC1=CCC=C(C)CCC=C(C)CCC(C(C)C)C=C1 (stereo not drawn)
59 to 61 °C

What would you report for "CCC(=O)Oc1cccc2ccccc12" ?
34 to 35 °C

---

attribute measured: melting point

Use these answered entries as a reference point.
INSERT INTO measurements (compound, attribute_measured, reported_value) VALUES
  ('CCOC(=O)CSCCC1NC(C(=O)O)CS1 (stereo unspecified)', 'melting point', '142 °C'),
  ('O=P(O)(O)CCCCP(=O)(O)O', 'melting point', '219 to 221 °C'),
  ('COc1ccc([N+](=O)[O-])cc1N=C=S', 'melting point', '105 to 107 °C');

Dear colleague, I am looking for the recorded melting point of the following compound: CC(C)C(N)CC(=O)O (stereo unspecified)
206 to 209 °C

How about this compound: "COC(=O)c1cc2c(s1)-c1cc(Cl)ccc1SC2"
158 to 160 °C

Also check "c1ccc(Nc2ccc3ccccc3c2)cc1"
108 °C

Now give it for "CC1=NNC(=O)C1=Cc1c(O)c2cccc(C)c2[nH]c1=O" too.
242 °C

And what about the compound "COc1ccc(C(C)=O)cc1CCl" ?
116 to 118 °C

---

attribute measured: melting point (°C)
Write the answer as a number in °C, unit excluded.

INSERT INTO results (compound, unit_text, reported_value) VALUES
  ('Cc1c(Cl)cccc1Nc1ccccc1C(=O)O', '°C', 207),
  ('CC(C)(C)OC(=O)C1CC(=O)CN1C(=O)OC(C)(C)C (centres undefined)', '°C', 66),
  ('Cc1cc(O)c([N+](=O)[O-])cc1Cl', '°C', 133);

Reported melting point for CC(CCC(=O)O)C1CCC2C3CCC4CC(O)CCC4(C)C3CC(O)C12C (centres undefined) : what is it?
177

Then this compound: "CCCCCN=C(N)NNC=C1C=Nc2ccc(CO)cc21"
155

Next compound: CCC(C(=O)NC(N)=O)c1ccccc1 (centres undefined)
162

One more compound: OC1OC2(CCCCC2)Cc2ccccc21 (centres undefined)
89

Param item: "CN(C)c1ccc(N)cc1"
53

Same lookup for "CC(C)(C)OC(=O)NC1(C(=O)O)CCCCC1" , please.
177

Can you handle "Cc1ccc2c(c1)C(=O)c1cc(C)ccc1C2=O" next?
163

Now the compound "CCOP(=S)(OCC)Oc1ccc([N+](=O)[O-])cc1"
6.1

Likewise for "Cc1ccccc1C(=O)Nc1cccc(OC(C)C)c1" ?
92.5

And the next one, "C=C(C)C=O" ?
-81

And the next one, O=C(NC(=O)c1c(F)cccc1F)Nc1ccc(OC(F)(F)C(F)OC(F)(F)F)c(Cl)c1 (centres undefined) ?
178

---

// reported melting point per item

INSERT INTO measurements (compound, reported_value) VALUES
  ('CC(OC/C(=N\NC(N)=O)c1ccccc1)=C(C#N)c1ccccc1', '156 to 158 °C'),
  ('NNC(=O)c1ccc(F)cc1F', '141 to 142 °C'),
  ('CCOC(=O)c1[nH]c(C)c(CO)c1C', '220 to 222 °C');

# lookup: melting point of "COc1ccc([N+](=O)[O-])c(I)c1"
68 to 73 °C

Next up: "COC(=O)Nc1cccc(OC(=O)Nc2cccc(C)c2)c1"
143 °C

What would you report for "CC(C)(C)c1cc(N)[nH]n1" ?
60 to 62 °C

Next up: "COC(=O)c1nc[nH]c1C(=O)OC"
197 to 201 °C

Same for "O=C(O)C=Cc1ccc(F)cc1"
207 to 210 °C

Next entry: "Cc1cc([N+](=O)[O-])cc(C)c1O"
164 to 169 °C

And what about the compound "O=C(O)c1ccccc1S" ?
164 to 169 °C
